Each item that follows carries a reported cytotoxicity at 10 µM.
- Protocol summary: Toxicity liver stage against HepG2, at 10uM
- Format: cell-based
- Design: test concentration 10 uM, cell line HepG2-A16-CD81EGFP
- Run parameters: human, HepG2-A16-CD81EGFP cells; read-out: INHIBITION
Give a bare numeral; the unit % is implied.

CCC(C)[C@H](N)c1nnc(SCC(=O)Nc2ccc(Br)cc2)o1 (some centres undefined): -3.48

Here is another compound to look at.
Return reported cytotoxicity at 10 µM; argument: CN(C)Cc1nc2c(o1)CN(C(=O)NCc1cccc(F)c1)C2 5.32

---

- Protocol summary: Toxicity liver stage against HepG2, at 10uM
- Format: cell-based
- Design: test concentration 10 uM, cell line HepG2-A16-CD81EGFP
- Run parameters: human, HepG2-A16-CD81EGFP cells; read-out: INHIBITION
Property: cytotoxicity at 10 µM (%)
Give a bare numeral; the unit % is implied.

COc1ccc(CNC(=O)Nc2ccc(CN3CCOC3=O)cc2)cc1: -1.44
CCN(Cc1noc(C(C)(C)C)n1)Cc1ccc(C#N)cc1F: -4.45
Cc1cnn(CCNCC(O)COc2c(Cl)cccc2Cl)c1 (configuration not stated): -5.4
Cc1cc2ccccc2n1CCC(=O)NCc1ncc[nH]1: 4.37
CC1c2ncc(COCC3CC3)n2CCN1C(=O)c1ccn(C)n1 (configuration not stated): 0.993

Return reported cytotoxicity at 10 µM; argument: O=C(c1cscn1)N1CCc2ncc(CN3CCOCC3)n2CC1 -75.6

Return reported cytotoxicity at 10 µM; argument: COc1ccc(Br)cc1Cn1nc(C(N)=O)ccc1=O 8.09
